Cited source for all entries: ChEMBL document CHEMBL1201862

# System: 786-0
# Experiment Summary: NCI tumour cell line growth inhibition, 48 h
The source made the active and inactive calls. Cut-off read from the data, not from the text of the source: active = GI50 up to about 1.1 µM and inactive = higher. Positions of bridges follow the written chain, without caps; N, C: chain ends. Non-standard residues stand in square brackets, D forms with d. Residues, ends and D or L forms follow the SMILES beside them. *: point of attachment. Cbz = O=C(OCc1ccccc1)*; Aib = CC(C)(N)C(=O)O; OBn = c1ccc(CO*)cc1; βAla = NCCC(=O)O
Measurement Type: GI50

Can you look up the measured GI50 of COS(=O)c1cc(Cl)cc(Cl)c1OC(=O)CSSCC(=O)Oc1c(Cl)cc(Cl)cc1S(=O)OC (stereo unspecified) for me?
22.4 µM (inactive)

Can you look up the measured GI50 of COC1(OC)CC2C(=O)N(Cc3ccccc3)C1C=C2S(=O)(=O)c1ccccc1 (stereo unspecified) for me?
19.7 µM (inactive)

Can you look up the measured GI50 of CCOC(=O)/C(=C\c1ccc(O)c(OC)c1)C(=O)c1ccccc1 for me?
16.7 µM (inactive)

Can you look up the measured GI50 of CC(C(=O)N1C(=O)N(C(=O)[C@H](C)C(O)c2ccccc2)[C@H](c2ccccc2)[C@H]1c1ccccc1)[C@@H](O)c1ccccc1 (stereo partly specified) for me?
29.2 µM (inactive)

Can you look up the measured GI50 of COc1ccc(Oc2nc3c(N)cc(C(F)(F)F)cc3nc2-c2ccccc2)cc1 for me?
20.5 µM (inactive)

Can you look up the measured GI50 of CCOC(=O)/C(C(=S)NCc1ccccc1)=C(/N)N1CCCC1 for me?
> 100 µM (inactive)

Can you look up the measured GI50 of O=c1sc2c(s1)-c1sc(=O)sc1SS2 for me?
> 100 µM (inactive)

Can you look up the measured GI50 of C=C1C(=O)OC2C1CCC(C)C1(O)C=CC(=O)C21C (stereo unspecified) for me?
6.11 µM (inactive)

Can you look up the measured GI50 of Oc1ncc(N(CCCl)CCCl)c(O)n1 [URACIL MUSTARD] for me?
10 µM (inactive)

Can you look up the measured GI50 of CC(=O)Nc1ccc2c(c1)/C(=N/c1ccc(C(=O)O)cc1)c1ccccc1-2 for me?
> 100 µM (inactive)

Can you look up the measured GI50 of S=C1CC(c2ccccc2)Sc2cc(Cl)ccc2N1 (stereo unspecified) for me?
5.42 µM (inactive)

Can you look up the measured GI50 of COC(=O)c1ccc(NCc2c(O)ccc(O)c2Br)cc1Cl for me?
18.4 µM (inactive)

Can you look up the measured GI50 of C1CCNCC1.S=C(S)N1CCCCC1 for me?
97.3 µM (inactive)

Can you look up the measured GI50 of CC1CCCc2c(CC3CC(=O)NC(=O)C3)nc(N)nc21 (stereo unspecified) for me?
> 100 µM (inactive)

Can you look up the measured GI50 of O=C(CCc1n[nH]c(=S)o1)Nc1cc(Cl)ccc1Cl for me?
29.6 µM (inactive)

Can you look up the measured GI50 of O=c1[nH]c2nc3ccccc3c(=O)n2/c1=C/c1ccco1 for me?
> 100 µM (inactive)

Can you look up the measured GI50 of C[C@@]12C[C@@H](c3ccccc3O1)N1Cc3ccccc3CSC1=N2 for me?
38.8 µM (inactive)

Can you look up the measured GI50 of CC(O)c1ccc(C(O)/C(=N\NC(=O)c2ccncc2)c2nc3ccc([N+](=O)[O-])cc3nc2O)cc1 (stereo unspecified) for me?
> 100 µM (inactive)

Can you look up the measured GI50 of Cc1ccc(S(=O)(=O)Oc2cc(N)c3c(n2)CCC3)cc1 for me?
> 100 µM (inactive)

Can you look up the measured GI50 of COc1cc(-c2c(C#N)c(N)c(C#N)c3c2COc2ccccc2-3)cc(OC)c1OC for me?
7.93 µM (inactive)

Can you look up the measured GI50 of C#CCn1c2c(c3ccccc3c1=O)C(=O)c1ccccc1-2 for me?
14 µM (inactive)

Can you look up the measured GI50 of CC(=O)NC1CC(C(C)(C)NC(C)=O)CC=C1C (stereo unspecified) for me?
> 100 µM (inactive)

Can you look up the measured GI50 of CN1CCN(Cn2nc(COc3ccccc3Cl)n(/N=C/c3ccc(-c4ccc(Cl)cc4Cl)o3)c2=S)CC1 for me?
18.6 µM (inactive)

Can you look up the measured GI50 of Cn1/c(=N\c2ccccc2[N+](=O)[O-])sc2ccccc21 for me?
30.7 µM (inactive)

Can you look up the measured GI50 of CC1(C)NC(=O)C(NC(=O)C(CC(=O)OCc2ccccc2)NC(=O)OCc2ccccc2)CCCCNC(=O)CCNC1=O (stereo unspecified) (Cbz-D(OBn)K[Aib][βAla]; lactam 2-C; configuration not given here) for me?
> 100 µM (inactive)

Can you look up the measured GI50 of COC(=O)C1C/C(=C/N(C)C)C(=S)N1 (stereo unspecified) for me?
> 100 µM (inactive)
